Sourced from the METLIN SMRT retention time set (Domingo-Almenara et al. 2019)

ASSAY NOTES: gradient 5% acetonitrile 3 min, to 50% in 2 min, to 85% in 15 min, held 3 min, 100 µL/min
TEST PARAMETERS: column: Zorbax Extend-C18 2.1 x 50 mm; eluents: water / acetonitrile, 0.1% formic acid
So basically, if RP-LC retention time comes in under 700 s it's rule met, and if it's 700 s or more it's rule not met.

Worked examples follow.
SMILES STR: COc1cc(=O)n2c(c1C(=O)NCCC1=CCCCC1)CCCC2
LABEL CLASS: rule not met
//
SMILES STR: Cc1ccc(NC(=O)CCNc2cnc3cnccn23)cc1Cl
LABEL CLASS: rule met
//
SMILES STR: O=C1CCCN1Cc1noc(-c2ccccc2Cl)n1
LABEL CLASS: rule not met
//
SMILES STR: Cc1cc(NC(=O)N(C)CC2CCOCC2)ccc1Br
LABEL CLASS: rule not met
//
SMILES STR: CCn1c(CN(c2ccc(F)cc2)S(C)(=O)=O)nnc1SCc1nnc(-c2ccccc2)o1
LABEL CLASS: rule not met

Read the next record carefully.
Data request: Threshold test, RP-LC retention time < 700 s: Cn1ncc2c(N3CCSCC3)nc(C(=O)NC3CC3)nc21
Data returned: rule met

###

ASSAY NOTES: gradient 5% acetonitrile 3 min, to 50% in 2 min, to 85% in 15 min, held 3 min, 100 µL/min
TEST PARAMETERS: column: Zorbax Extend-C18 2.1 x 50 mm; eluents: water / acetonitrile, 0.1% formic acid
Could you mark each record yes if its RP-LC retention time falls strictly under 700 s, and no if it equals or exceeds it?

COMPOUND: Cc1ccn2c(Nc3ccc4c(c3)OCCO4)c(-c3cccc(Br)c3)nc2c1
LABEL CLASS: no

Data request: Is it true that RP-LC retention time reported for Cc1cccc(CNC(=O)CC2CCN(C(=O)c3[nH]c(C)cc3C)CC2)c1 is less than 700 s?
Data returned: no

Data request: Does this compound meet the criterion RP-LC retention time < 700 s? CN1C(=O)c2cccn2CC1CNC(=O)NCCc1ccccc1 (stereo not given)
Data returned: yes

Data request: Input CC1CCC[C@H](O)CCCCCc2cc(O)cc(O)c2C(=O)O1 (stereo not given in full) ; condition: RP-LC retention time strictly below 700 s. Does it hold?
Data returned: no

###

ASSAY NOTES: gradient 5% acetonitrile 3 min, to 50% in 2 min, to 85% in 15 min, held 3 min, 100 µL/min
TEST PARAMETERS: column: Zorbax Extend-C18 2.1 x 50 mm; eluents: water / acetonitrile, 0.1% formic acid
# label = bin(measured RP-LC retention time), where bins are lower (below 600 s), middle (600 s to below 800 s), upper (800 s or more)

Field: example entries. Status: answers known.
COMPOUND: O=C(NCC1CCCO1)C1CCCN(c2nccnc2Sc2ccccc2)C1 (centres undefined)
LABEL CLASS: upper
//
COMPOUND: C=CCNC(=O)C(=O)N1CCN(c2ccc(OC)cc2)CC1
LABEL CLASS: middle
//
COMPOUND: Cc1nn(-c2nc(CC(=O)N(CCO)Cc3ccccc3)cs2)c(C)c1Cl
LABEL CLASS: upper
//
COMPOUND: Cc1ccn2cc(C(=O)NCCc3ccc(S(N)(=O)=O)cc3)nc2c1
LABEL CLASS: lower
//
COMPOUND: CCc1nccn1Cc1noc(-c2ccc(C)cc2)n1
LABEL CLASS: middle

Shift focus to the following entry.
Data request: Band for the recorded RP-LC retention time of CCOC(=O)c1ccc(Nc2c(-c3ccc(N(C)C)cc3)nc3cnccn23)cc1 ?
Data returned: upper

###

ASSAY NOTES: gradient 5% acetonitrile 3 min, to 50% in 2 min, to 85% in 15 min, held 3 min, 100 µL/min
TEST PARAMETERS: column: Zorbax Extend-C18 2.1 x 50 mm; eluents: water / acetonitrile, 0.1% formic acid
MEASUREMENT NAME: RP-LC retention time (s)
Write the answer as a number in s, unit excluded.

Example entries and their recorded answers appear below.
COMPOUND: Cc1cccc(-c2nsc(SCC(=O)N3CCc4ccccc43)n2)c1
UOM: s
RP-LC retention time: 1150
--
COMPOUND: Fc1ccc(-c2noc(-c3nnn4c3COC(c3ccc(Cl)cc3)C4)n2)cc1 (centres undefined)
UOM: s
RP-LC retention time: 1250
--
COMPOUND: O=C(Nc1ccccc1)N1CCc2nc(-c3ccccc3)ncc2C1
UOM: s
RP-LC retention time: 859
--
COMPOUND: COCCN1CCn2cc(S(=O)(=O)Nc3cccc(OC)c3)cc2C1=O
UOM: s
RP-LC retention time: 670

Data request: Any idea what RP-LC retention time was measured for O=C(c1ccc2c(c1)CCCN2S(=O)(=O)c1ccccc1)N1CCOCC1 ?
Data returned: 787

Data request: RP-LC retention time for Cc1ccc(C(=O)N2CCCCC2c2nc(-c3cccnc3)no2)cn1 (centres undefined) ?
Data returned: 641

Data request: Entry CCNC(=O)Nc1ccc(OCC(=O)NC2CCN(Cc3ccccc3)CC2)nc1 has what RP-LC retention time?
Data returned: 584

Data request: Given the compound COc1ccc(Nc2c(C(=O)N3CCCCC3)cnc3nc(C)ccc23)cc1OC , what is its reported RP-LC retention time?
Data returned: 588

Data request: Return reported RP-LC retention time; argument: COc1cc(OC)c(NC(=O)N2CCCC(Cn3cnc4cccnc43)C2)cc1Cl (centres undefined)
Data returned: 703

Data request: Request the reported RP-LC retention time associated with CCCNC(=O)C1CCN(c2nc3ccc(-c4ccccc4F)nc3s2)CC1
Data returned: 951

Data request: Need RP-LC retention time, item CCOCN(C(=O)Cn1c(CC)nc2ccccc21)c1c(C)cccc1CC
Data returned: 780

Data request: Value lookup for RP-LC retention time; key = CS(=O)(=O)c1nc2ccc(NS(=O)(=O)c3ccc4c(c3)CCC4)cc2s1
Data returned: 987

Data request: Please give the measured RP-LC retention time for this compound: CCCn1c(=O)sc2cc(S(=O)(=O)N3CCC(C(=O)N4CCC(C)CC4)CC3)ccc21
Data returned: 994

Data request: Give the measured RP-LC retention time of Clc1ccc(Cl)c(-c2ccc(CNCCN3CCNCC3)o2)c1 .
Data returned: 603

###

ASSAY NOTES: gradient 5% acetonitrile 3 min, to 50% in 2 min, to 85% in 15 min, held 3 min, 100 µL/min
TEST PARAMETERS: column: Zorbax Extend-C18 2.1 x 50 mm; eluents: water / acetonitrile, 0.1% formic acid
Measured RP-LC retention time values are reported for all entries that follow.
Numeric answer only, unit s assumed.

MOLECULE: COc1ccc(-c2noc(CN3N=NC4C(=O)N(c5ccc(C)c(F)c5)C(=O)C43)n2)c(OC)c1 (stereo not drawn)
UOM: s
RP-LC retention time: 844
//
MOLECULE: CN(C)c1ccc(CNC(=O)C2CCN(c3cncnc3N3CCOCC3)CC2)cc1
UOM: s
RP-LC retention time: 545
//
MOLECULE: COc1ccc(NC(=O)N2CCN(c3cc(-c4ccc(OC)c(OC)c4)ncn3)CC2)c(OC)c1
UOM: s
RP-LC retention time: 660

Data request: # get_value(readout='RP-LC retention time', item= CN(Cc1ccccc1)C(=O)C(=O)c1c[nH]c2ccccc12 )
Data returned: 800

Data request: Data request, read-out RP-LC retention time, for COc1cccc(C(=O)Nc2c(-c3ccccc3)nc3ccccn23)c1OC
Data returned: 666

Data request: What does the data say about its RP-LC retention time? Entry: CCn1c(-c2ccccc2)nc2ccccc21
Data returned: 623

Data request: Any idea what its RP-LC retention time is? The molecule is O=C(CN1CCN(C(=O)Nc2ccc(Cl)cc2)CC1=O)NC1CCCCC1
Data returned: 724

Data request: Return reported RP-LC retention time; argument: CCc1c(C(=O)NNC(=O)[C@@H](O)c2cc(F)cc(F)c2)ccc(O)c1C
Data returned: 807

###

compounds and their reported RP-LC retention time
ASSAY NOTES: gradient 5% acetonitrile 3 min, to 50% in 2 min, to 85% in 15 min, held 3 min, 100 µL/min
TEST PARAMETERS: column: Zorbax Extend-C18 2.1 x 50 mm; eluents: water / acetonitrile, 0.1% formic acid
Could you write the number and then its unit?

COMPOUND: CCSc1nc2ccc(NS(=O)(=O)c3ccccc3)cc2s1
RP-LC retention time: 997 s

COMPOUND: COc1cccc(CN2N=C(C(=O)N3CCC(C)CC3)S(=O)(=O)c3ccc(C)cc32)c1
RP-LC retention time: 674 s

COMPOUND: Cc1cccc(Cn2c(=O)n(CCNC(=O)c3cnccn3)c3ncccc32)c1
RP-LC retention time: 722 s

COMPOUND: Nc1ccc(C(=O)Oc2ccc([N+](=O)[O-])cc2)cc1
RP-LC retention time: 926 s

COMPOUND: CC(=O)C1=C(O)C(=O)N(C(C)c2ccccc2)C1c1ccccc1 (configuration not stated)
RP-LC retention time: 836 s

COMPOUND: Cc1ccsc1C(=O)N1CC[C@@H](n2c(=O)n(C)c3cccnc32)C1
RP-LC retention time: 710 s

// next item, RP-LC retention time requested
Data request: Please look up its RP-LC retention time: COCc1noc([C@@H]2CC(F)(F)CN2C(=O)C2CC=CC2)n1
Data returned: 777 s
